- Assay Procedure: human hepatoma cell viability loss – ATP luminescence, cytotoxicity control for P. falciparum antimalarial project, primary screen (AID 2303);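 further: 0% = DMSO wells and 100% = digitonin-killed cells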
- Test Context: HepG2 viability, 24-48 h, at 10 µM, hits give high values
This section presents compounds with their documented inhibition values.
Supply the numeric figure in %, leaving out any unit text.

Cc1noc(C)c1-c1ccc2c(Nc3ccc(C(F)(F)F)cc3)c(C(N)=O)cnc2c1 | 1
Oc1ccc(CCNc2nc(NCc3ccccc3-c3ccccc3)nc(N3CCCNCC3)n2)cc1 | 26
Cc1cc(F)ccc1[C@H]1CNCCN1C(=O)N(C)[C@@H](C)c1cc(C(F)(F)F)cc(C(F)(F)F)c1 | 20

[Q] I would be grateful if you could share the reported inhibition for `Cc1c(Cl)cccc1S(=O)(=O)Nc1ccc(CCN2CCC(N)CC2)cc1` .
[A] 23

[Q] Using the record for `Clc1ccccc1CNc1noc(-c2sccc2Br)n1` , report its inhibition.
[A] 0

[Q] Which measured inhibition value corresponds to `Cc1c(F)cc(C(=O)NC2CC2)cc1-c1ccc2c(c1)c(C)nn2S(=O)(=O)c1cccs1` ?
[A] 34

[Q] Entry CN(C)CC(=O)NCC(NCCCNc1cc(=O)c2ccccc2[nH]1)c1cc(Br)cc(Br)c1 (centres undefined) : reported inhibition = ?
[A] 6

---

- Tested System: L-lactate dehydrogenase (Plasmodium falciparum (isolate CDC / Honduras)) (UniProt Q27743)
- Sequence (Q27743 whole entry, looked up): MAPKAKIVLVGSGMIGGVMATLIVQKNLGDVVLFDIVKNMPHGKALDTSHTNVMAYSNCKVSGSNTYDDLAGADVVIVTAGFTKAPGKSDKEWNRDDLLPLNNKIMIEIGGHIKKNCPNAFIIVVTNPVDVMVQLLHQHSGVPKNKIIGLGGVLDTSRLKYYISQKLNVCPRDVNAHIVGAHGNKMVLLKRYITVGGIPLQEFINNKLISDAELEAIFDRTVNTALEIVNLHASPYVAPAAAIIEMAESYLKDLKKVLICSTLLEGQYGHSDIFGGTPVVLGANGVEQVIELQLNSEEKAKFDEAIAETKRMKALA
- Assay Procedure: PfLDH activity inhibition – cell lysate, 3D7 strain, counter-screen for P. falciparum growth inhibition project (AID 2304);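 further: 0% = vehicle and 100% = reference inhibitor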
- Test Context: P. falciparum 3D7 crude extract, LDH APAD/NBT absorbance; at 2 µM; hits give high values
Test Readout: inhibition (%)
Express your answer in %, writing the number without its unit.

Known results for compounds:
CCCCc1cc(NCC)nc(Nc2ccc(F)cc2)n1 | -1
CCN(CCCN1CCCCC1)c1cc(C)nc(Nc2cccc(C(F)(F)F)c2)n1 | 5
Nc1ncc(-c2cccc(OCc3ccccc3)c2)cc1-c1nnc2ccc(Cl)nn12 | -5
CC(=O)c1ccc(N2CCN(CCC3(c4ccc(Cl)c(Cl)c4)COCN(C(=O)c4ccccc4)C3)CC2)cc1 (stereo not given) | 5

[Q] So what inhibition did `COc1cccc(NC(=O)c2nc(N3CCN(c4ccncc4)CC3)ccc2Cl)c1` get with L-lactate dehydrogenase (Plasmodium falciparum (isolate CDC / Honduras)) (UniProt Q27743)?
[A] 1

---

- Tested System: L-lactate dehydrogenase (Plasmodium falciparum (isolate CDC / Honduras))
- Assay Procedure: PfLDH activity inhibition – cell lysate, 3D7 strain, counter-screen for P. falciparum growth inhibition project (AID 2304);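 further: 0% = vehicle and 100% = reference inhibitor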
- Test Context: P. falciparum 3D7 crude extract, LDH APAD/NBT absorbance; at 2 µM; hits give high values
Examples of molecules with documented inhibition follow.
The response must be a number in % with no trailing unit.

Before answering, review these 3 worked examples.
O=C(/C=C/c1ccc(Cl)c(Cl)c1)NCCCCCCN1CCN(C(=O)Nc2ccc(C(F)(F)F)cc2)CC1 | -1
Cc1ccc2nc(C)cc(NN=Cc3cccc(Cl)c3)c2c1 | 2
CCCNc1nc(NCc2c(C)cccc2C)nc(NC(C)(C)C)n1 | 2

Next up:
[Q] Value lookup for inhibition; key = `COc1ccc2ncc(Cl)c(CCN3CCC(NCc4ccc5c(n4)NC(=O)CS5)CC3)c2c1`
[A] -2

---

inhibition by entry:
- Tested System: L-lactate dehydrogenase (Plasmodium falciparum (isolate CDC / Honduras))
- Assay Procedure: PfLDH activity inhibition – cell lysate, 3D7 strain, counter-screen for P. falciparum growth inhibition project (AID 2304);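 further: 0% = vehicle and 100% = reference inhibitor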
- Test Context: P. falciparum 3D7 crude extract, LDH APAD/NBT absorbance; at 2 µM; hits give high values
API: value field is a number in %; no unit string.

COc1ccccc1C1CCN(C2CCC(NC(=O)c3ccc4nc(-c5ccc(C)cc5)[nH]c4c3)CC2)CC1 (centres undefined) | 4
O=C(Nc1cccc(OC2CCN(Cc3ccsc3)CC2)c1)c1ccc(C(F)(F)F)cc1 | -2
CC(=O)N[C@@H]1c2cc(C(C)=O)ccc2OC(C)(C)[C@@H]1O | -3
Cc1ccc(Nc2nccc(NCC(O)c3cccc(C(F)(F)F)c3)n2)cc1 (centres undefined) | -6
CN1CCN(CCc2ccc3nc(-c4csc(Cc5cc(Cl)ccc5OCc5ccccc5)n4)[nH]c3c2)CC1 | -1
COc1ccc(CC2(c3ccc(F)cc3)N=C(N)N(CCCc3cccnc3)C2=O)cc1 (centres undefined) | 0

[Q] # value lookup — system L-lactate dehydrogenase (Plasmodium falciparum (isolate CDC / Honduras)), readout inhibition, item COc1ccccc1N1CCN(C(C(=O)NCc2ccc3c(c2)OCO3)c2ccc3c(c2)OCCCO3)CC1 (centres undefined)
[A] 5

[Q] Record `Cc1cc(N[C@@H](CC(C)C)C(=O)NCCc2ccccc2)nc(NCCc2cccs2)n1` : what is its inhibition with L-lactate dehydrogenase (Plasmodium falciparum (isolate CDC / Honduras))?
[A] -3

[Q] State its inhibition on L-lactate dehydrogenase (Plasmodium falciparum (isolate CDC / Honduras)): `Cc1cccc2[nH]c(-c3cccc(-c4ccc(NC(=O)Nc5ccc6c(c5)OCO6)cc4)c3)nc12`
[A] -3

---

- Tested System: L-lactate dehydrogenase (Plasmodium falciparum (isolate CDC / Honduras)) (UniProt Q27743)
- Assay Procedure: PfLDH activity inhibition – cell lysate, 3D7 strain, counter-screen for P. falciparum growth inhibition project (AID 2304);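 further: 0% = vehicle and 100% = reference inhibitor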
- Test Context: P. falciparum 3D7 crude extract, LDH APAD/NBT absorbance; at 2 µM; hits give high values
Parameter inhibition: see the listing below.
The response must be a number in % with no trailing unit.

Oc1ccc(Nc2nc(NCC3CCCO3)c3ccccc3n2)cc1 (centres undefined) | 4
Nc1cccc(CNCc2ccc(-c3ccc(-c4nc5ccc(F)cc5[nH]4)s3)cc2)c1 | 1
CN(C)C(=O)O[C@@H]1CN[C@H](C#Cc2cc3ncnc(Nc4ccc5c(cnn5Cc5cccc(F)c5)c4)c3s2)C1 | 7
COc1ccccc1C1CCN(C2CCC(NC(=O)/C=C/c3cc(C(F)(F)F)ccc3F)CC2)CC1 (centres undefined) | -3
Cc1cc(N2C(N)=NC(N)=NC2(C)C)ccc1Cl | -5

[Q] Need inhibition, item `O=C(/C=C/c1ccc(-c2nc3ccc(Cl)cc3[nH]2)cc1)NC1CCN(Cc2ccccc2)CC1`
[A] 0

[Q] Fill blank: measured inhibition of the compound `O=C(Cn1c(CCc2cccc(F)c2F)cc(=O)c2ccccc21)N(CCN1CCCCC1)Cc1ccc(-c2ccc(C(F)(F)F)cc2)cc1` is ____.
[A] -6

---

- Assay Procedure: human hepatoma cell viability loss – ATP luminescence, cytotoxicity control for P. falciparum antimalarial project, primary screen (AID 2303);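 further: 0% = DMSO wells and 100% = digitonin-killed cells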
- Test Context: HepG2 viability, 24-48 h, at 10 µM
Active and inactive are the calls of the source.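 Rule for the calls: active = inhibition above 50%; inactive = the rest.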
Hello, when you answer, please use one of the following outcomes: active, inactive

Answered cases to consult:
O=c1cc(NCCCNCc2cccc(I)c2)[nH]c2ccccc12 | inactive
Cc1ccc(NC(=O)c2ccc(NCCCN(C)Cc3ccccc3)c([N+](=O)[O-])c2)cc1F | inactive
O=C(CNc1ccc(Cl)c(S(=O)(=O)N2CCCC2)c1)Nc1ccc(Br)cc1F | inactive
Cn1c(=O)c2cc(C(=O)NCCCN3CCCCCC3)sc2c2ccccc21 | inactive
CCc1cc([C@H]2O[C@@H](n3cnc4c(NCC(c5ccccc5)c5ccccc5)nc(NCCNc5ccccn5)nc43)[C@H](O)[C@@H]2O)on1 | inactive
O=C(NCCCCN1CCN(c2cccc3ccccc23)CC1)c1ccc(NC(=O)c2ccc(Cl)cc2)cc1 | inactive
NCC1CCCN1Cc1ccc(-c2ccc(-c3nc4ccc(C(F)(F)F)cc4[nH]3)cc2)cc1 (stereo not given) | inactive
NC(N)=NN=Cc1ccccc1OCc1ccccc1Cl | inactive

[Q] Which outcome was assigned to `COC(=O)c1cccc(CNCc2ccc(-c3ccc(-c4nc5ccc(C(F)(F)F)cc5[nH]4)s3)cc2)c1` in this test?
[A] inactive

---

- Assay Procedure: human hepatoma cell viability loss – ATP luminescence, cytotoxicity control for P. falciparum antimalarial project, primary screen (AID 2303);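 further: 0% = DMSO wells and 100% = digitonin-killed cells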
- Test Context: HepG2 viability, 24-48 h, at 10 µM
Active and inactive are the calls of the source.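 Rule for the calls: active = inhibition above 50%; inactive = the rest.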
Can you answer with just one of these options? Yes (active), No (inactive)

COc1c(CNCCCCCCNCc2cc(Cl)c3ccccc3c2OC)cc(Cl)c2ccccc12 | Yes
CCNC(=O)N1CCc2ccc(Oc3nc(NCc4ccccc4OC)ncc3C)cc2CC1 | No
Cc1[nH]c2ccccc2c1C(=O)C(C)Sc1n[nH]c(-c2ccccc2Br)n1 (stereo not given) | No
CCOC(=O)c1ccc(NC(=O)N[C@@H](Cc2ccccc2)C(=O)NC2CCN(Cc3ccc(OCCCN(C)C)cc3)C2)cc1 (stereo not given in full) | No
CCc1ccccc1N=C1c2c(cccc2[N+](=O)[O-])C(=O)C1C(C)=O (stereo not given) | No

[Q] Test call for this compound, please: `O=C(Nc1cccc(CN2CCCN(Cc3ccc(O)cc3)CC2)c1)c1cccc(C(F)(F)F)c1`
[A] No

[Q] How was `CCc1ccc(NC(=O)c2ccc(CN3CCCN(Cc4cccs4)CC3)cc2)cc1` classified in this test?
[A] Yes

[Q] Given O=C(CC1NC(=O)c2ccccc21)Nc1ccc(-c2cccc(-c3nc4ccc(C(F)(F)F)cc4[nH]3)c2)cc1 (stereo not given) , state the outcome it received in this test.
[A] Yes

[Q] Record lookup: outcome of this test for `CN=C(Nc1c(Cl)cccc1Cl)N(C)C` ?
[A] No

[Q] Outcome? `Cc1cc(N2CCCC2)nc(Nc2ccc(NC(=O)C(C)C)cc2)n1`
[A] No

This collection of values is drawn from PubChem BioAssay.
